Give measured IC50 for each item. Keep answers brief.
Test system: DU-145
Assay: Cell growth inhibition assay, prostate cancer cell line DU-145
Assay type: cell-based
Conditions: Homo sapiens, DU-145 prostate cancer cell line
The figure you give is taken to be in µM; do not add the unit.

What value of IC50 has been reported for the following compound? CC(C)Oc1cc(OC(F)(F)F)cc(C(C)(C)c2cc(Cl)cc(NC(=O)c3cc4cc(NS(=O)(=O)C5CCOC5)ccc4s3)c2)c1 (stereo not shown)
0.017

Data request, read-out IC50, for CSc1ccc(C(C)(C)c2cc(Cl)cc(NC(=O)c3cc4cc(NS(C)(=O)=O)ccc4s3)c2)cc1
0.06

What measured IC50 goes with CS(=O)(=O)Nc1cc2cc(C(=O)Nc3cc(Cl)cc(Oc4cncs4)c3)sc2cc1Cl ?
0.13

Give its IC50 value. Item: CS(=O)(=O)Nc1cc2cc(C(=O)Nc3cc(Cl)cc(Oc4ccc(C(F)(F)F)cc4)c3)sc2cc1Cl
0.005

---

Biological target: STAT3 (Homo sapiens)
Construct: plasmid pSTAT3-TA-luc), which contains a stably operating STAT3 promoter; endogenous in cells
Sequence (P40763 whole entry): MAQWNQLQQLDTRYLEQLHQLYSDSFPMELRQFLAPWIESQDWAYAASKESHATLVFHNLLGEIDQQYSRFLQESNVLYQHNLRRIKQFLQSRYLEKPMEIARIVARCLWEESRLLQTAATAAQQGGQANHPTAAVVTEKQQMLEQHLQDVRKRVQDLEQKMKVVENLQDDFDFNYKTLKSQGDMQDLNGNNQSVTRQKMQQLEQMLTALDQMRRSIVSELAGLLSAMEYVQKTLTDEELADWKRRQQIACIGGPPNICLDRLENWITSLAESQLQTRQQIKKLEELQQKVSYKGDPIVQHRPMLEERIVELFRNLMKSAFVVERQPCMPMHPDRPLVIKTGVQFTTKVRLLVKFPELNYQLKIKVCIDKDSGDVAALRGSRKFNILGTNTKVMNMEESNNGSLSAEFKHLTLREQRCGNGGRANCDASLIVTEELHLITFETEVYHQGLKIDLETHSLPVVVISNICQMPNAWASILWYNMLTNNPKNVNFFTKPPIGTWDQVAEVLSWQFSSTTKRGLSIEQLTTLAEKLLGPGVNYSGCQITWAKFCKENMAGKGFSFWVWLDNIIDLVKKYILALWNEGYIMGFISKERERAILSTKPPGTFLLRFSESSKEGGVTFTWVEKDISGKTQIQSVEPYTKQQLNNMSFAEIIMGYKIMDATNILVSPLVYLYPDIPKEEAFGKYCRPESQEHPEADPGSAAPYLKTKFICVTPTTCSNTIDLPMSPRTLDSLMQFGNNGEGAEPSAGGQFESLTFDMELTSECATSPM
Assay: STAT3 reporter gene assay (luciferase), LNCaP stable cell line (pSTAT3-TA-luc), IL-6 stimulation
Type: cell-based
Binary call on IC50 with cut-off 0.1 µM: strictly below means T, and equality or higher means F.

For CC(C)(c1ccc(Cl)cc1)c1cc(Cl)cc(NC(=O)c2cc3cc(NS(C)(=O)=O)c(Br)cc3s2)c1 [Example 173] , is the recorded IC50 below the cut-off of 0.1 µM?
T

# TODO verify IC50 < 0.1 µM strictly for this compound: CS(=O)(=O)Nc1cc2cc(C(=O)Nc3cc(Cl)cc(Oc4ccc(F)c(F)c4)c3)sc2cc1Cl [Example 481]
T

Consider CC(C)(c1cc(Br)cc(NC(=O)c2cc3cc(NS(C)(=O)=O)ncc3s2)c1)c1cc(OC(F)(F)F)cc(OC(F)(F)C(F)F)c1 [Example 89] . Does its IC50 lie strictly below 0.1 µM?
T

Input Cn1c(C(=O)Nc2cccc(-c3ccc(F)cc3F)c2)cc2ccc([N+](=O)[O-])cc21 [Example 247] ; condition: IC50 strictly below 0.1 µM. Does it hold?
F

Please determine if CS(=O)(=O)Nc1ccc2cc(C(=O)Nc3cccc(S(=O)(=O)c4cccc(N)c4)c3)[nH]c2c1 [Example 415] is below 0.1 µM in terms of IC50.
F

Criterion: IC50 strictly below 0.1 µM. Is it met by CN(c1ccc2cc(C(=O)Nc3cccc(-c4ccc(F)cc4F)c3)n(C)c2c1)S(C)(=O)=O [Example 345] ?
F

---

Molecular target: STAT3 (Homo sapiens)
Construct: plasmid pSTAT3-TA-luc), which contains a stably operating STAT3 promoter; endogenous in cells
Test: STAT3 reporter gene assay (luciferase), LNCaP stable cell line (pSTAT3-TA-luc), IL-6 stimulation
Assay type: cell-based
Can you tell me log10 IC50 for the items I'm about to list?
log10 IC50, µM

What value of log10 IC50 has been recorded for this entry: CC(C)(c1cc(Br)cc(NC(=O)c2cc3cc(NS(C)(=O)=O)ccc3s2)c1)c1cc(OC(F)(F)F)cc(OC(F)(F)C(F)F)c1 [Example 87]
-1.80

Looking for the measured log10 IC50 of CS(=O)(=O)Nc1ccc2sc(C(=O)Nc3cc(Cl)cc(Oc4ccc(Cl)c(F)c4)c3)cc2c1 [Example 466] , can you help?
-0.92

Request the reported log10 IC50 associated with CS(=O)(=O)Nc1ccc2sc(C(=O)Nc3cc(Cl)cc(-c4ccc(F)cc4F)n3)cc2c1 [Example 331]
-1.29

Field request: log10 IC50 | item: CC(C)Oc1cc(OC(F)(F)F)cc(C(C)(C)c2cc(Cl)cc(NC(=O)c3cc4cc(NS(C)(=O)=O)c(Cl)cc4s3)c2)c1 [Example 105]
-2.30

Look at this compound and give its reported log10 IC50. CS(=O)(=O)Nc1ccc2cc(C(=O)Nc3cc(OCC(F)F)cc(C(F)(F)c4cccc(C#N)c4)c3)[nH]c2c1 [Example 391]
0.38

Find the recorded log10 IC50 belonging to CC(C)(c1cc(F)cc(NC(=O)c2cc3cc(NS(C)(=O)=O)ccc3s2)c1)c1cc(OC(F)(F)F)cc(OC(F)(F)C(F)F)c1 [Example 85] and report it.
-1.80

Param item = CC#CCOc1cc(OC(F)(F)F)cc(C(C)(C)c2cc(Cl)cc(NC(=O)c3cc4cc(NS(C)(=O)=O)ccc4s3)c2)c1 [Example 75] ; retrieve measured log10 IC50.
-2.10

Which log10 IC50 value is on record for CC(C)Oc1cc(CN2CCOCC2)cc(C(C)(C)c2cc(F)cc(NC(=O)c3cc4cc(NS(C)(=O)=O)ccc4s3)c2)c1 [Example 137] ?
-0.66

Requested field: log10 IC50. Item: COc1sccc1C(C)(C)c1cc(Cl)cc(NC(=O)c2cc3cc(NS(C)(=O)=O)ccc3s2)c1 [Example 176]
-1.44

What value of measured log10 IC50 is listed for CS(=O)(=O)Nc1cc2cc(C(=O)Nc3cc(Cl)cc(Oc4ccc(F)cc4)c3)sc2cc1Cl [Example 478] ?
-1.66

Suppose we examine the compound CS(=O)(=O)Nc1ccc2sc(C(=O)Nc3cc(Cl)nc(Oc4ccc(C(F)(F)F)cc4)c3)cc2c1 [Example 495] ; what log10 IC50 value has been reported?
-1.10

Return reported log10 IC50; argument: CC(C)(c1cc[nH]c1)c1cc(Cl)cc(NC(=O)c2cc3cc(NS(C)(=O)=O)ccc3s2)c1 [Example 167]
0.41

What does the record list as log10 IC50 for CC(C)(c1ccc(F)cc1)c1cccc(NC(=O)c2cc3cc(NS(C)(=O)=O)ccc3o2)c1 [Example 28] ?
-0.21

May I ask what log10 IC50 has been recorded for CCC(CC)(c1cc(NC(=O)c2cc3cc(NS(C)(=O)=O)ccc3s2)cc(OC)c1)c1cc(OC)cc(OC(F)(F)F)c1 [Example 54] ?
-1.32

log10 IC50 lookup needed for CS(=O)(=O)Nc1ccc2sc(C(=O)Nc3cc(Cl)cc(-c4ccc(F)cc4F)c3)c(O)c2c1 [Example 335] , thanks.
0.76

Quick check: log10 IC50 of CC(C)(c1ccc(Cl)cc1)c1cc(Cl)cc(NC(=O)c2cc3cc(NS(=O)(=O)CCO)c(Cl)cc3s2)c1 [Example 188] ?
-1.27

# query: log10 IC50 of entry CN(C)c1cc(NC(=O)c2cc3ccc(NS(C)(=O)=O)cc3[nH]2)cc(-c2ccc(F)cc2F)c1 [Example 372]
-0.47

So what does the record say about log10 IC50 for CC(C)Oc1cc(Cl)cc(C(C)(C)c2cc(Cl)cc(NC(=O)c3cc4cc(NS(C)(=O)=O)ccc4s3)c2)c1 [Example 92] ?
-1.17

Given COc1cc(OC(F)(F)F)cc(C(C)(C)c2cccc(NC(=O)c3cc4ccc(NS(C)(=O)=O)cc4[nH]3)c2)c1 [Example 9] , state its recorded log10 IC50.
-1.25

Recorded log10 IC50 of Cc1ccc(C(C)(C)c2cc(Cl)cc(NC(=O)c3cc4cc(NS(C)(=O)=O)c(Cl)cc4s3)c2)s1 [Example 179] , please.
-2.40

Which log10 IC50 value is on record for COc1cc(OC(F)(F)F)cc(C(C)(C)c2cc(Br)cc(NC(=O)c3cc4ccc(NS(C)(=O)=O)cc4[nH]3)c2)c1 [Example 16] ?
-0.95

Quick check: log10 IC50 of CS(=O)(=O)Nc1ccc2sc(C(=O)Nc3cc(Cl)cc(Oc4cccc(OC(F)(F)F)c4)c3)cc2c1 [Example 450] ?
-1.00

Bench note: what log10 IC50 did CS(=O)(=O)Nc1cc2cc(C(=O)Nc3cc(Cl)cc(Oc4ccc(Cl)s4)c3)sc2cc1Cl [Example 473] show?
-1.00

Reported log10 IC50, compound CC(C)Oc1cc(CN2CCN(C(=O)N(C)C)CC2)cc(C(C)(C)c2cc(Cl)cc(NC(=O)c3cc4cc(NS(C)(=O)=O)ccc4s3)c2)c1 [Example 133] : ____
-0.82

// log10 IC50 lookup, key: CS(=O)(=O)Nc1ccc2cc(C(=O)Nc3cc(C(F)(F)F)cc(S(=O)(=O)c4cccc(OC(F)(F)F)c4)c3)[nH]c2c1 [Example 398]
0.20

Given the compound CS(=O)(=O)Nc1ccc2cc(C(=O)Nc3cccc(-c4ccc(S(N)(=O)=O)cc4C(F)(F)F)c3)[nH]c2c1 [Example 283] , what is its reported log10 IC50?
0.87

Would you mind telling me what log10 IC50 value was observed for CS(=O)(=O)Nc1ccc2sc(C(=O)Nc3cc(Cl)cc(Oc4cc(F)cc(F)c4)c3)cc2c1 [Example 463] ?
-0.72
